Reported values of MIC50 for individual entries
system: human rhinovirus (HRV) serotypes; experiment: microbe, parasite or virus in culture; type: cell-based; conditions: read-out: Rhinovirus MIC50
Field format: number, assumed mg/L, no unit text.

1. Cc1cc(CCCCCOc2c(Cl)cc(C3=NCCCO3)cc2Cl)on1 0.705
2. Cc1cc(CCCCCOc2ccc(C3=NC(C)(C)CO3)cc2)on1 1.5
3. Cc1cc(CCCCCOc2ccc(-c3ncc(C)o3)cc2)on1 0.09

Exam item: Answer with the recorded MIC50 for the compound listed here: Cc1cc(CCCCCOc2ccc(C3=NCCO3)cc2N)on1
Marked response: 1.1

Exam item: Answer with the recorded MIC50 for the compound listed here: Cc1cc(CCC=CCOc2ccc(C3=NCCO3)cc2)on1
Marked response: 49.6
